# System: Panc-1 pancreatic carcinoma
# Assay procedure: In vivo evaluation against Panc-1 human pancreatic carcinoma (Example 17)
# Assay setup: Panc-1 (Example 17); i.v. qd x 1; six mice per group
Readout name: Toxic Deaths

Molecule	Study target	Experimental value
CCC(=O)O[C@H]1C(=O)[C@@]2(C)[C@H]([C@H](OC(=O)c3ccccc3)[C@]3(O)C[C@H](OC(=O)[C@H](O)[C@@H](NC(=O)c4ccccc4)c4ccoc4)C(C)=C1C3(C)C)[C@]1(OC(C)=O)CO[C@@H]1C[C@@H]2O	Panc-1 pancreatic carcinoma	One
CC(=O)O[C@H]1C(=O)[C@@]2(C)[C@H]([C@H](OC(=O)c3ccccc3)[C@]3(O)C[C@H](OC(=O)[C@H](O)[C@@H](NC(=O)c4ccccc4)c4ccccc4)C(C)=C1C3(C)C)[C@]1(OC(C)=O)CO[C@@H]1C[C@@H]2O [Taxol, paclitaxel, reference compound]	Panc-1 pancreatic carcinoma	Three
CC(=O)O[C@@]12CO[C@@H]1C[C@H](O)[C@@]1(C)C(=O)[C@H](OC(=O)C3CC3)C3=C(C)[C@@H](OC(=O)[C@H](O)[C@H](C=C(C)C)NC(=O)OC(C)(C)C)C[C@@](O)([C@@H](OC(=O)c4ccccc4)[C@H]21)C3(C)C	Panc-1 pancreatic carcinoma	One
CC(=O)O[C@@]12CO[C@@H]1C[C@H](O)[C@@]1(C)C(=O)[C@H](OC(=O)C3CC3)C3=C(C)[C@@H](OC(=O)[C@H](O)[C@@H](NC(=O)OC(C)(C)C)c4cccs4)C[C@@](O)([C@@H](OC(=O)c4ccccc4)[C@H]21)C3(C)C	Panc-1 pancreatic carcinoma	six

meta.source: patent EP1285920A1
